- Test system: UACC-257 melanoma
- procedure text: NCI tumour cell line growth inhibition, 48 h
A collection of molecules and their measured TGI
parameter: TGI (µM)

[
  {
    "molecule": "COc1ccc(C(OCC2OC(n3cc(C)c(=O)[nH]c3=O)CC2n2cc(Cn3cc(Cl)c(=O)[nH]c3=O)nn2)(c2ccccc2)c2ccccc2)cc1 (centres undefined)",
    "target desc": "UACC-257 melanoma",
    "parameter": "TGI",
    "unit text": "µM",
    "rel": ">",
    "measured value": 100
  },
  {
    "molecule": "O=C(Nc1nc(C23CC4CC(CC(C4)C2)C3)cs1)c1cc2ccc(O)cc2oc1=O",
    "target desc": "UACC-257 melanoma",
    "parameter": "TGI",
    "unit text": "µM",
    "rel": "=",
    "measured value": 44.1
  },
  {
    "molecule": "Cc1ccnc2[nH]c3ccccc3c(=O)c12",
    "target desc": "UACC-257 melanoma",
    "parameter": "TGI",
    "unit text": "µM",
    "rel": ">",
    "measured value": 100
  },
  {
    "molecule": "C=CCCCCOc1ccccc1-c1cnc(OCCCCC=C)n1C",
    "target desc": "UACC-257 melanoma",
    "parameter": "TGI",
    "unit text": "µM",
    "rel": "=",
    "measured value": 12.9
  }
]

###

- System: NCI/ADR-RES ovarian
- procedure text: NCI tumour cell line growth inhibition, 48 h
A collection of compounds and their measured TGI
parameter: TGI

[
  {
    "compound": "COc1cc(NCc2ccc3nc(N)nc(N)c3c2C)cc(OC)c1OC (tested in a mixture with another compound)",
    "measured value": "229 µM"
  },
  {
    "compound": "COc1cc2c(cc1OCCCNC(=O)c1cccc3c(=O)c4ccccc4[nH]c13)N=C[C@@H]1CCCN1C2=O",
    "measured value": "> 26.4 µM"
  },
  {
    "compound": "O=c1cc(-c2cccc3ccccc23)[nH]c2ncccc12",
    "measured value": "> 100 µM"
  }
]

###

- System: M14 melanoma
- procedure text: NCI tumour cell line growth inhibition, 48 h
A collection of compounds and their measured TGI

[
  {
    "compound": "COc1cccc(C2=NC(C(C)C)CO2)c1 (stereo not drawn)",
    "TGI": "> 100 µM"
  },
  {
    "compound": "CCOC(=O)Nc1ccc(C)c(NC(=O)OCC)c1",
    "TGI": "> 100 µM"
  },
  {
    "compound": "CC(=O)Oc1ccc2c(C)cc(=O)oc2c1OC(C)=O",
    "TGI": "> 100 µM"
  }
]

###

- Tested on: CCRF-CEM leukemia
- procedure text: NCI tumour cell line growth inhibition, 48 h; in the data active means GI50 below about 0.43 µM; inactive means the rest
Possible outcomes: active, inactive

[
  {
    "compound": "Clc1ccc2[nH]cc(-c3nnnn3-c3ccccc3)c2c1",
    "group": "inactive"
  },
  {
    "compound": "C=C(C)[C@@H]1CC[C@]2(C(=O)NC3CCCCC3)CC[C@]3(C)[C@H](CC[C@@H]4[C@@]5(C)CCCNC(C)(C)[C@@H]5CC[C@]43C)[C@@H]12",
    "group": "inactive"
  },
  {
    "compound": "O=C1OCC2=C1C(c1cccc(Br)c1)c1cc3c(cc1N2CCO)CCC3 (stereo unspecified)",
    "group": "active"
  },
  {
    "compound": "CNCC#Cc1c(F)ccc2c1/C(=C/c1[nH]ccc1OC)C(=O)N2",
    "group": "active"
  },
  {
    "compound": "C[C@@H]1CC[C@@H]2[C@@H]1[C@H](OC(=O)/C=C/c1ccccc1)[C@]1(C3CCCCC3)C[C@@H](OC(=O)CO)[C@@]2(C)O1",
    "group": "inactive"
  },
  {
    "compound": "COc1cc2c3c(n(C)c(=O)c2cc1OC)-c1cc2c(cc1/C3=C\\CN)OCO2",
    "group": "active"
  },
  {
    "compound": "[Cl][Hg][c]1cc[c]([Hg][Cl])o1",
    "group": "active"
  },
  {
    "compound": "CN(C)CC[PH+](c1ccccc1)c1ccccc1.CN(C)CC[PH+](c1ccccc1)c1ccccc1.[Cl-].[Pd+2]",
    "group": "inactive"
  },
  {
    "compound": "CO/N=C(\\COc1ccc2c(c1)oc(=O)c1cc(OC)ccc12)c1ccc(OC)cc1",
    "group": "inactive"
  },
  {
    "compound": "CCC[CH2][Sn]([Cl])([CH2]CCC)[CH2]CCC",
    "group": "active"
  },
  {
    "compound": "CCn1c2ccccc2c2cc(NC(=O)Nc3ccc([N+](=O)[O-])cc3C)ccc21",
    "group": "inactive"
  }
]
